# study system: VIM-2 metallo-beta-lactamase (Pseudomonas aeruginosa) (UniProt Q932Y6)
# test name: inhibition of VIM-2 substrate hydrolysis – biochemical, epi-absorbance, common IMP-1/VIM-2 hits, dose response (AID 2754)
# measurement setup: purified VIM-2 enzyme
Active and inactive are the calls of the source. The rule behind the calls is not given here.
// allowed return values: TRUE (active), FALSE (inactive)

molecule: CCN1/C(=C/C=C/c2oc3ccc4ccccc4c3[n+]2CC)Oc2ccc3ccccc3c21
discrete label: FALSE

molecule: O=C(CCN1C(=O)/C(=C/c2ccc(Cl)cc2)SC1=S)NCCCn1ccnc1
discrete label: FALSE

molecule: O=[N+]([O-])c1ccc(N2CCCCCC2)c2nonc12
discrete label: FALSE

molecule: CCCCN(C)C1=CC2=CC(=C(C#N)C#N)CCC2CC1 (stereo not given)
discrete label: TRUE

molecule: COc1ccc(-c2cc(=O)oc3c(C)c(OCC(=O)NCCCn4ccnc4)ccc23)cc1
discrete label: FALSE

GET /call?item= `CCC(=C/c1sc2ccc3ccccc3c2[n+]1C)/C=C1\Sc2ccc3ccccc3c2N1C` returns the recorded outcome of this test.
FALSE
